# STUDY_TARGET: human 5-HT1D receptor (Homo sapiens)
# Construct: host or cells: HEK293T
# Sequence (P28221 whole entry): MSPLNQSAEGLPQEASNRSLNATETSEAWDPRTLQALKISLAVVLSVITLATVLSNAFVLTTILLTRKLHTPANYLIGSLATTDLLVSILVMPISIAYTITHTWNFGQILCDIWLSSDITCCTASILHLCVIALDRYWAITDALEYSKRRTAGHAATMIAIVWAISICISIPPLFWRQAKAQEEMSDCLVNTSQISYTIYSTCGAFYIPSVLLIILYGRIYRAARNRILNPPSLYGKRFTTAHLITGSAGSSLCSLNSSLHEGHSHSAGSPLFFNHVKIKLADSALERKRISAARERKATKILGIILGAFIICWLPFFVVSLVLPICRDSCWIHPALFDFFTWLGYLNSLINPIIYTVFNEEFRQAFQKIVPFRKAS
# TEST: Radioligand binding (saturation and competition), WT 5-HT1D
# TEST_CONDITIONS: read-out: Affinity (pKi ± SD) 5-HT1D (converted)
Criterion: Ki strictly less than 600 nM. Met: 1.0. Not met: 0.0.

Consider the compound Fc1ccccc1-c1cccc2c1CC[C@H](N1CCNCC1)C2 . Is its Ki strictly less than 600 nM? 1.0

Consider the compound CN(C)[C@H]1CCc2c(cccc2-c2cccc3c2oc2ccccc23)C1 . Is its Ki strictly less than 600 nM? 1.0

Consider the compound CN1CCC(c2c[nH]c3ccc(NC(=O)c4ccc(F)cc4)cc23)CC1 [LY334370, reference compound] . Is its Ki strictly less than 600 nM? 0.0

Consider the compound Fc1ccccc1-c1cccc2c1CC[C@H](N1CCCC1)C2 [(S)-PFPT] . Is its Ki strictly less than 600 nM? 1.0

Consider the compound Fc1ccccc1-c1cccc2c1CC[C@@H](N1CCCC1)C2 [(R)-PFPT] . Is its Ki strictly less than 600 nM? 1.0
